The reported numbers originate from paper PMC10288853.

Assay: Plasma pharmacokinetics by LC-MS/MS
Details: human, plasma, oral, Median Tmax [Min; Max], plasma binimetinib; 2nd section, Cycle 1 Day 1 (C1D1); Dose Level 4: AEB071 300 mg bid and MEK162 45 mg bid

molecule | unitLabel | Tmax
Cn1cnc2c(F)c(Nc3ccc(Br)cc3F)c(C(=O)NOCCO)cc21 [binimetinib] | h | 2.9

====

Assay: Plasma pharmacokinetics by LC-MS/MS
Details: human, plasma, oral, Median Cmax [Min; Max], plasma binimetinib; Cycle 1 Day 1 (C1D1); Dose Level 6: AEB071 400 mg bid and MEK162 30 mg bid

lineNotation | Cmax (ng/mL)
Cn1cnc2c(F)c(Nc3ccc(Br)cc3F)c(C(=O)NOCCO)cc21 | 279
